- Test system: A549
- experiment notes: Growth inhibition of human A549 cells after 48 hrs by MTT assay
- Assay type: functional, cell-based
- test parameters: A549, 48 h
The reader will find reported IC50 values listed item by item below.
parameter: IC50

smiles structure | subject of test | observed result
COc1ccc(-c2cc(C(=O)N/N=C(\C)c3cc(Cl)cc(Cl)c3O)n(Cc3ccc(C(C)(C)C)cc3)n2)cc1 | A549 | 2.08 µM
C/C(=N\NC(=O)c1cc(-c2ccc(Cl)cc2)nn1Cc1ccc(C(C)(C)C)cc1)c1cc(C)ccc1O | A549 | 2.49 µM
COc1ccc(-c2cc(C(=O)N/N=C(\C)c3cc(C)ccc3O)n(Cc3ccc(C(C)(C)C)cc3)n2)cc1 | A549 | 10.4 µM
COc1ccc(-c2cc(C(=O)N/N=C(\C)c3cc(Cl)ccc3O)n(Cc3ccc(C(C)(C)C)cc3)n2)cc1 | A549 | 9.62 µM
C/C(=N\NC(=O)c1cc(-c2ccccc2)nn1Cc1ccc(C(C)(C)C)cc1)c1cc(C)ccc1O | A549 | 6.1 µM
